- target or test system: T1, Purified recombinant human CD26 (rhDipeptidyl peptidase IV), R&D Systems CAT #1180-SE (human, UniProt P27487 29-766)
- T1 construct: Bought recombinant protein; also called hu-CD26; soluble human CD26
- T1 sequence (P27487 29-766 limits assumed): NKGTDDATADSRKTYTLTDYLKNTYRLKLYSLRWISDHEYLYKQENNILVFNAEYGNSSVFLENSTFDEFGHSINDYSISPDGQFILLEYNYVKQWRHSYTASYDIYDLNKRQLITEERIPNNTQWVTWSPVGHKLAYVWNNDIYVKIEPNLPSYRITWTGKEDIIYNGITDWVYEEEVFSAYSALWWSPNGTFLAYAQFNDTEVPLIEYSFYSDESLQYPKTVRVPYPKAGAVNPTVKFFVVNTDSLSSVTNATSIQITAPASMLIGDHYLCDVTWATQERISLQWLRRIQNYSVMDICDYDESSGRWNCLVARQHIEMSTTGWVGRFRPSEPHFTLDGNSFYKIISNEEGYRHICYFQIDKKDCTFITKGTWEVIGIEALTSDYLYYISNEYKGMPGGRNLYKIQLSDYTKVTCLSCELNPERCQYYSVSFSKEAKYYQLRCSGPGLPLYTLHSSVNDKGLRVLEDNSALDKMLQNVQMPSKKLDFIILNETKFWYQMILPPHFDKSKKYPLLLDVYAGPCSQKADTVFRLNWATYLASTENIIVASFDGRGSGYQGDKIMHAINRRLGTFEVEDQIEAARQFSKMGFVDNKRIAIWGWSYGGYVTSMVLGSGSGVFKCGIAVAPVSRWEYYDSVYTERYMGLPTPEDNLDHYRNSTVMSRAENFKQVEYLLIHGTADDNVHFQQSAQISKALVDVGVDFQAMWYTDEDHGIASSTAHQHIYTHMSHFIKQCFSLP
- protocol text: SPR (Biacore), Fab
result type: ratio of the Kd of CM03 Fab to the Kd of individual clone

Fab X394 (X384 VH and X394 VL) (Fab, V domains shown, Fab made in E. coli) VH: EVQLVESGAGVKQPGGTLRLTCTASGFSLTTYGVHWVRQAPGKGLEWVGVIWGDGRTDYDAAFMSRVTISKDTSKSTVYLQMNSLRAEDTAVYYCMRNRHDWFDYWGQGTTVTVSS VL: DILMTQSPSSLSASPGDRVTISCRASQDIRNNLNWYQQKPGQAPRLLIYYSSNLQTGVPARFSGSGSGTDFTLTISRLEPEDFAAYYCQQSIKLPLTFGSGTKVEIK | 2.81
Fab X430 (X399 VH and X394 VL) (Fab, V domains shown, also called Fab X429) VH: EVQLVQSGGGVKQPGETLRLTCTASGFSLSTYGVHWVRQAPGKGLEWVGVIWGDGRTDYDAAFMSRVTISKDTSKSTVYLQMNSLRAEDTAVYYCMRNRHDWFDYWGQGTTVTVSS VL: DILMTQSPSSLSASPGDRVTISCRASQDIRNNLNWYQQKPGQAPRLLIYYSSNLQTGVPARFSGSGSGTDFTLTISRLEPEDFAAYYCQQSIKLPLTFGSGTKVEIK | 1.37
Fab X389 (X384 VH and X376 VL) (Fab, V domains shown, Fab made in E. coli) VH: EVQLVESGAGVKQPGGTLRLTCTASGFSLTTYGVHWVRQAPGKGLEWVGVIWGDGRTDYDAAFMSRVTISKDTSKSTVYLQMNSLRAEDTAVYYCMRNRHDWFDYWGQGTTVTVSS VL: DILMTQSPSSLSASPGDRVTISCRASQDIRNNLNWYQQKPGQAPRLLIYYSSNLHSGVPDRFSGSGSGTDFTLTISRLEPEDFAAYYCQQSIKLPLTFGSGTKVEIK | 4.29
